- Tested on: IL-23 (p19/p40)
- assayDetails: IL23-p19 ELISA, Dendritic, LPS (compound screening using DC cells)
- Type: cell-based, Human
- testConditions: PBMC-derived DC cells, IFNγ primed, LPS 1 μg/ml, 18 hours, 10 pt; formate; read-out: IL23-p19 ELISA, Dendritic, LPS, 10 pt, EC50
Where a name gives a salt, the structure may show the parent alone.
reportedEndpoint: log10(EC50) (log10 of the value in nM)

molecule="CCOCCn1cc(NC(=O)c2ccc(-c3cn[nH]c3)o2)c(-c2nccs2)n1 [Compound I-118, formate]" reportedendpoint=log10(EC50) datavalue=2.21
molecule="CCOCCn1cc(NC(=O)c2ccc(-c3cn[nH]c3)o2)c(-c2ccccn2)n1 [Compound I-37, formate]" reportedendpoint=log10(EC50) datavalue=1.24
molecule="CCO[C@@H]1CC[C@H](n2cc(NC(=O)c3ccc(-c4cn[nH]c4)o3)c(-c3ccccn3)n2)C1 [Compound I-132, formate]" reportedendpoint=log10(EC50) datavalue=2.01
molecule="O=C(Nc1cn(C2CCOCC2)nc1-c1nccs1)c1ccc(-c2cn[nH]c2)o1 [Compound I-60, formate]" reportedendpoint=log10(EC50) datavalue=1.53
molecule="O=C(Nc1cn(C2C=C(F)C2)nc1-c1ccccn1)c1csc(-c2cn[nH]c2)n1 (centres unmarked) [II-133, formate]" reportedendpoint=log10(EC50) datavalue=3.18
